This collection of values is drawn from ChEMBL document CHEMBL4419168.

Test system: SW480
Experiment: Cytotoxicity in human SW480 cells assessed as reduction in cell viability incubated for 72 hrs by MTS assay
Format: functional, cell-based
Details: SW480, 72 h
pIC50: −log10 of the molar value.
measurement kind: pIC50

                               smiles_input  target_under_test  experimental_value
0  CC(C)c1cc2c(c(O)c1O)[C@@]1(C(=O)O)CCCC(C)(C)[C@@H]1CC2              SW480                4.98
1  O=C(Nc1ccc(O[C@H]2CCNC2)c(-c2ccc(F)cc2)c1)c1ccc(O[C@H]2CCNC2)c(-c2ccc(F)cc2)c1              SW480                5.01
2  O=C(Nc1ccc(O[C@H]2CCNC2)c(-c2ccc(F)cc2)c1)c1ccc(O[C@H]2CCNC2)c(-c2ccc(F)c(F)c2)c1              SW480                5.46

====

Biological target: beta-catenin-B-cell lymphoma 9 protein complex (Homo sapiens)
Sequence (P35222 whole entry, the tested form may be a part): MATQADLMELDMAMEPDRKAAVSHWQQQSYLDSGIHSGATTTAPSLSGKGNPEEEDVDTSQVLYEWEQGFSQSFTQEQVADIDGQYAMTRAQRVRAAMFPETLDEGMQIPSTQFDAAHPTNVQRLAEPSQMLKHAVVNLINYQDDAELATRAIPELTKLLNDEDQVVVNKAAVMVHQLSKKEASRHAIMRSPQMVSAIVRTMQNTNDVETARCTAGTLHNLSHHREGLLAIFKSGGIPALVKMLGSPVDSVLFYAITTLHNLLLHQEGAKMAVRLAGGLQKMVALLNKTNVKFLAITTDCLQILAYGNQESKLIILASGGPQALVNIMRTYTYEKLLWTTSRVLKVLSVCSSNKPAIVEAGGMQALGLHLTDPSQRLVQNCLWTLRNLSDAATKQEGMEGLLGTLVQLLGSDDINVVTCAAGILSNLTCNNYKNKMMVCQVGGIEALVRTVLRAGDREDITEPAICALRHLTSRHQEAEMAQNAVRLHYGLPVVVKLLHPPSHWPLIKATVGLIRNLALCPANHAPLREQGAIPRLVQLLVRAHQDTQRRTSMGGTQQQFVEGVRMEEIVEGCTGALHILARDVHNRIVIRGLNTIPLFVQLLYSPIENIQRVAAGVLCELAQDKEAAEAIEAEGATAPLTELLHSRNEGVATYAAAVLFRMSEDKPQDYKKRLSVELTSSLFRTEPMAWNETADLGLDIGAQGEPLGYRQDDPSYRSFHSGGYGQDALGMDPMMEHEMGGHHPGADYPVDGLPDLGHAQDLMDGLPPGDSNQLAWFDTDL
Sequence (O00512 whole entry, further chain, the tested form may be a part): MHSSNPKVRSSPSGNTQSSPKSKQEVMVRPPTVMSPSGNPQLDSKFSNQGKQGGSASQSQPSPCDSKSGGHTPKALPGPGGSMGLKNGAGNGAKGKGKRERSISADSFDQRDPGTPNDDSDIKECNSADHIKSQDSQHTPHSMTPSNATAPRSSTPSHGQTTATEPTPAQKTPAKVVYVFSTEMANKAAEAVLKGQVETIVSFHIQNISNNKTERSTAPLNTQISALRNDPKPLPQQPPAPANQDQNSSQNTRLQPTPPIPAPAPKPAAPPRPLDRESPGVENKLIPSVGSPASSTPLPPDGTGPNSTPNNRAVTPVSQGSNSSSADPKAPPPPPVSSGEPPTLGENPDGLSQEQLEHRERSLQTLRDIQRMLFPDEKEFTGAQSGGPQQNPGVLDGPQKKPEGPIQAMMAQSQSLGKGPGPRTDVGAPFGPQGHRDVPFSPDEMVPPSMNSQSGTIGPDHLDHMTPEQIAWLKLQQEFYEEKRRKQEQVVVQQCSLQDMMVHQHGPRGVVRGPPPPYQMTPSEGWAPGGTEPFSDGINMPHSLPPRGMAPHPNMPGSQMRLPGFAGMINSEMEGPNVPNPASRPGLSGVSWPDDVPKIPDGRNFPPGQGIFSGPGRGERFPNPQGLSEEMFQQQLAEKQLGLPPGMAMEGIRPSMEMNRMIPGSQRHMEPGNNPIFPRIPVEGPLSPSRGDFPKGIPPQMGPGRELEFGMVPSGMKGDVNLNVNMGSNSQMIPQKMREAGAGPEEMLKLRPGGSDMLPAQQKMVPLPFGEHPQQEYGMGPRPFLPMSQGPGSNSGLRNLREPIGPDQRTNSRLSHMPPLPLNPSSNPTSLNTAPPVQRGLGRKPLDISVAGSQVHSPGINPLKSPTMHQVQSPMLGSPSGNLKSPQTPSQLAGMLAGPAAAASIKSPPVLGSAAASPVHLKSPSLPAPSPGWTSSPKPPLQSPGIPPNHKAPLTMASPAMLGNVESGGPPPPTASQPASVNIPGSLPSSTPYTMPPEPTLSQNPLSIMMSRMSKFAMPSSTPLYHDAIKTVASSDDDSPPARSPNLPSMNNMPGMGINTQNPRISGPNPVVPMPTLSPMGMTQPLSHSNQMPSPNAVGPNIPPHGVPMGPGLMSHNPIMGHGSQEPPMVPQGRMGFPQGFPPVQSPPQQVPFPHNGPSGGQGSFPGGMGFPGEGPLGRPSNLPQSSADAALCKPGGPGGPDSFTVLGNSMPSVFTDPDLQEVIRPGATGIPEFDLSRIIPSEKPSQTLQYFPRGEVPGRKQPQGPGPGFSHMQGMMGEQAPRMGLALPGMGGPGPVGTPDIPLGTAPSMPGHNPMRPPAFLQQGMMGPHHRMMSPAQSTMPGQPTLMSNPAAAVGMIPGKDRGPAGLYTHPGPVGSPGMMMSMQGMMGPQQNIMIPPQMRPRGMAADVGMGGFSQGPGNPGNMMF
Assay: Inhibition of C-terminal 6x-histidine tagged beta-catenin (138 to 686 residues) (unknown origin) expressed in Escherichia coli BL21 DE3 /human BCL9 (350 to 375 residues) protein-protein interactions incubated for 1 hr by Alpha-screen assay
pKi: −log10 of the molar value.
measurement kind: pKi

In [3]: df
Out[3]:
                               smiles_input  measurement_kind  experimental_value
0  NCCOc1ccc(NC(=O)c2ccc(OCCN)c(-c3ccc(F)cc3)c2)cc1-c1ccc(F)cc1               pKi                4.94
1  O=C(Nc1ccc(O[C@H]2CCNC2)c(-c2ccc(F)cc2)c1)c1ccc(O[C@H]2CCNC2)c(-c2ccc(F)cc2)c1               pKi                5.18
2  O=C(Nc1ccc(O[C@H]2CCNC2)c(-c2ccc(F)c(F)c2)c1)c1ccc(O[C@H]2CCNC2)c(-c2ccc(F)c(F)c2)c1               pKi                5.06

====

System: MCF-10A
Test: Cytotoxicity in human MCF10A cells assessed as reduction in cell viability incubated for 72 hrs by MTS assay
Assay type: cell-based
pIC50: −log10 of the molar value.
pIC50 overview
measurement kind: pIC50

                               smiles_input  experimental_value
0  O=C(Nc1ccc(O[C@H]2CCNC2)c(-c2ccc(F)cc2)c1)c1ccc(O[C@H]2CCNC2)c(-c2ccc(F)cc2)c1                4.70
1  O=C(Nc1ccc(O[C@H]2CCNC2)c(-c2ccc(F)cc2)c1)c1ccc(O[C@H]2CCNC2)c(-c2ccc(F)c(F)c2)c1                5.04
